In this section, each of the compounds is paired with its reported pKi.
target: human H4 receptor (Homo sapiens); construct: expressed in transfected cells; test: Binding Assay on Recombinant Human Histamine H4 Receptor; settings: Table 1; [3H] histamine competition binding, membranes of SK-N-MC cells transfected with human H4 receptor; average of results
Sequence (Q9H3N8 whole entry): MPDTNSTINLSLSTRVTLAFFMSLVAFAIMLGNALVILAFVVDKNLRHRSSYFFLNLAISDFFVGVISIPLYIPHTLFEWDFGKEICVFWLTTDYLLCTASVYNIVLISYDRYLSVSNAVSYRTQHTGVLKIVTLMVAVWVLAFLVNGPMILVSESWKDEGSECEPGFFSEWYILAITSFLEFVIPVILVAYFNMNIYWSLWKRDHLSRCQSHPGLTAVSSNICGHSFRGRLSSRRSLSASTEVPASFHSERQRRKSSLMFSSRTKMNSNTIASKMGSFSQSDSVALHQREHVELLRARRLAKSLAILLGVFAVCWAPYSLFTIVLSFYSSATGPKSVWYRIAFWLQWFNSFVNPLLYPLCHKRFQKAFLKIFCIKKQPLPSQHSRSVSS
pKi: −log10 of the molar value.

{"columns": ["compound", "testTarget", "modifierSign", "pKi"],
 "data": [
  ["Nc1nc(C2CCCCC2)cc(N2C[C@H]3CCCN[C@H]3C2)n1 [Example 55]", "human H4 receptor (Homo sapiens)", "=", 9.00],
  ["Cc1nc(N)nc(N2C[C@@H]3C[C@H]2CN3)c1C [Example 32]", "human H4 receptor (Homo sapiens)", "<", 5.00],
  ["Cc1nc(N)nc(N2C[C@H]3CN(C)C[C@H]3C2)c1C [Example 30]", "human H4 receptor (Homo sapiens)", "=", 6.28],
  ["Nc1nc2c(c(N3C[C@H]4CCCN[C@H]4C3)n1)CCCC2 [Example 72]", "human H4 receptor (Homo sapiens)", "=", 7.85],
  ["Nc1nc(C2CCCC2)cc(N2CCC[C@@H](N)C2)n1 [Example 3]", "human H4 receptor (Homo sapiens)", "=", 6.59]
]}

* * *

// reported pKi per item
target: human H4 receptor (Homo sapiens); construct: expressed in transfected cells; assay: Binding Assay on Recombinant Human Histamine H4 Receptor; conditions: Table 1; [3H] histamine competition binding, membranes of SK-N-MC cells transfected with human H4 receptor; average of results
pKi: −log10 of the molar value.

{"columns": ["compound", "modifierSign", "pKi"],
 "data": [
  ["Nc1nc(C2CCCC2)cc(N2CCNCC2)n1", "=", 9.00],
  ["Nc1nc(C2CCC2)cc(N2CC3CCNC3C2)n1 (centres unmarked)", "=", 7.96],
  ["CCc1cc(N2C[C@H]3CCN[C@H]3C2)nc(N)n1", "=", 7.57],
  ["CN1CCN(c2cc(Cc3ccccc3)nc(N)n2)CC1", "=", 7.68],
  ["Cc1nc(N)nc(N2CCN(C)CC2)c1C", "=", 6.75],
  ["Nc1nc(C2CCC2)cc(N2CC3CCCNC3C2)n1 (centres unmarked)", "=", 8.52],
  ["CN1C[C@@H]2CN(c3cc(C4CCC4)nc(N)n3)C[C@@H]2C1", "=", 7.30],
  ["CN[C@@H]1CCN(c2nc(N)nc3c2CCCC3)C1", "=", 7.37],
  ["CC(C)c1cc(N2C[C@H]3CN(C)C[C@H]3C2)nc(N)n1", "=", 7.77],
  ["CN[C@@H]1CCN(c2cc(C(C)C)nc(N)n2)C1", "=", 7.92],
  ["CN[C@@H]1CCN(c2cc(C3CCC3)nc(N)n2)C1", "=", 8.70],
  ["CC(C)c1cc(N2CCC[C@@H](N)C2)nc(N)n1", "=", 6.09],
  ["Nc1nc(C2CCC2)cc(N2CCNCC2)n1", "=", 8.70],
  ["CN[C@@H]1CCN(c2cc(C)nc(N)n2)C1", "=", 7.11],
  ["Nc1nc(C2CCC2)cc(N2C[C@H]3CCCN[C@H]3C2)n1", "=", 8.52],
  ["Nc1nc2c(c(N3C[C@@H]4C[C@H]3CN4)n1)CCCC2", "<", 5.00],
  ["Nc1nc(C2CCC2)cc(N2CCC[C@@H](N)C2)n1", "=", 6.99],
  ["Nc1nc(C2CCOC2)cc(N2CCNCC2)n1 (centres unmarked)", "=", 7.70],
  ["CCc1cc(N2C[C@H]3CCCN[C@H]3C2)nc(N)n1", "=", 8.00],
  ["Cc1nc(N)nc(N2CCNCC2)c1C", "=", 6.54],
  ["CC(C)c1cc(N2CCNCC2)nc(N)n1", "=", 8.52],
  ["CN1CCN(c2nc(N)nc3c2CCC3)CC1", "=", 7.12],
  ["Nc1nc2c(c(N3CC[C@@H](N)C3)n1)CCCC2", "=", 6.94],
  ["CCc1cc(N2CCNCC2)nc(N)n1", "=", 8.00],
  ["CN1CCN(c2cc(C3CCOCC3)nc(N)n2)CC1", "=", 7.54],
  ["Cc1cc(N2CCNCC2)nc(N)n1", "=", 7.54],
  ["CCc1cc(N2C[C@H]3CNC[C@H]3C2)nc(N)n1", "=", 6.25],
  ["CN1CCN(c2cc(C3CCC3)nc(N)n2)CC1", "=", 9.00],
  ["Cc1nc(N)nc(N2CC3CCNC3C2)c1C (centres unmarked)", "<", 5.00],
  ["CC(C)c1cc(N2CC3CCCNC3C2)nc(N)n1 (centres unmarked)", "=", 8.10],
  ["Nc1nc(C2CCOCC2)cc(N2CCNCC2)n1", "=", 7.39],
  ["Cc1cc(N2CC3CCCNC3C2)nc(N)n1 (centres unmarked)", "=", 7.31],
  ["CCc1cc(N2CCN(C)CC2)nc(N)n1", "=", 8.22],
  ["Nc1nc(Cc2ccccc2)cc(N2C[C@H]3CCCN[C@H]3C2)n1", "=", 7.33],
  ["CNC1CN(c2cc(C(C)C)nc(N)n2)CC1O (centres unmarked)", "=", 6.20],
  ["CC(C)c1cc(N2C[C@H]3CCCN[C@H]3C2)nc(N)n1", "=", 7.74],
  ["CC(C)c1cc(N2CC3CCNC3C2)nc(N)n1 (centres unmarked)", "=", 7.19],
  ["CN[C@@H]1CCN(c2nc(N)nc3c2CCC3)C1", "=", 6.80],
  ["CCc1cc(N2CC[C@@H](NC)C2)nc(N)n1", "=", 7.68],
  ["Cc1nc(N)nc(N2CC3CCCNC3C2)c1C (centres unmarked)", "=", 6.60],
  ["Cc1cc(N2CCN(C)CC2)nc(N)n1", "=", 7.74],
  ["Nc1nc2c(c(N3CC4CCCNC4C3)n1)CCCC2 (centres unmarked)", "=", 8.30],
  ["CN[C@@H]1CCN(c2cc(C3CCOCC3)nc(N)n2)C1", "=", 7.51],
  ["CN[C@@H]1CCN(c2cc(C3CCCCC3)nc(N)n2)C1", "=", 8.52]
]}
